# Measurement protocol: Pharmacokinetic evaluation in dogs after a 10 mg/kg dose
# Settings: dog, plasma, po, Tmax (time to achieve maximum concentration in blood), oral 10 mg/kg, microbiological assay
Property measured: Tmax

In the examples that follow, each entry is paired with its recorded Tmax.
| Compound | Tmax |
| --- | --- |
| CC[C@H]1OC(=O)[C@H](C)[C@@H](O[C@H]2C[C@@](C)(OC)[C@H](N)[C@H](C)O2)[C@H](C)[C@@H](O[C@@H]2O[C@H](C)C[C@H](N(C)C)[C@H]2O)[C@](C)(O)C[C@@H](C)[C@@H]2O[C@@]1(C)[C@@H](O)[C@H]2C [Example 13] | 24 min |
| CC[C@H]1OC(=O)[C@H](C)[C@@H](O[C@H]2C[C@@](C)(OC)[C@@H](N)[C@H](C)O2)[C@H](C)[C@@H](O[C@@H]2O[C@H](C)C[C@H](N(C)C)[C@H]2O)[C@](C)(O)C[C@@H](C)[C@@H]2O[C@@]1(C)[C@@H](N)[C@H]2C [Example 22] | 36 min |

Could you tell me Tmax for each of these compounds? They are listed below.
1. CC[C@H]1OC(=O)[C@H](C)[C@@H](O[C@H]2C[C@@](C)(OC)[C@@H](O)[C@H](C)O2)[C@H](C)[C@@H](O[C@@H]2O[C@H](C)C[C@H](N(C)C)[C@H]2O)[C@](C)(O)C[C@@H](C)[C@@H]2O[C@@]1(C)[C@@H](O)[C@H]2C [Example 4]
2. CC[C@H]1OC(=O)[C@H](C)[C@@H](O[C@H]2C[C@@](C)(OC)[C@@H](O)[C@H](C)O2)[C@H](C)[C@@H](O[C@@H]2O[C@H](C)C[C@H](N(C)C)[C@H]2O)[C@](C)(O)C[C@@H](C)C(=O)[C@H](C)[C@@H](O)[C@]1(C)O [Std, Erythromycin A, reference compound]
3. CC[C@H]1OC(=O)[C@H](C)[C@@H](O[C@H]2C[C@@](C)(OC)[C@@H](O)[C@H](C)O2)[C@H](C)[C@@H](O[C@@H]2O[C@H](C)C[C@H](N(C)C)[C@H]2O)[C@](C)(O)C[C@@H](C)[C@@H]2O[C@@]1(C)[C@@H](N)[C@H]2C [Example 19]

Reply |
24 min
18 min
24 min
